These data points were gathered from the nanobody polyreactivity screen of Harvey et al. (2022).

# Assay Info: yeast display, Sf9 membrane polyspecificity reagent, FACS + sequencing; frameworks hold sequencing errors

Input Sequence	polyreactivity (PSR sort gate)
QVQLVESGGGLVQAGGSLRLSCAASGRILAYYAMGWYRQAPGKERELVAAITSGGRTYYADSVKGRFTISRDNAKNTVYLQMNSLKPEDTPVYYCNAVYGYWYGSWGQGTQVTVSS	high polyreactivity
QVQLVESGGGLVQAGGSLRFSCAASGSIIFDGNAMAWSRQAPGKEREMVADITTSDGRTYYADSVKGRFTISRDSAKNTVYFQMNSLKPEDTAVYDCAKPNGYHGGRYDYWGQGSQVTVSS	low polyreactivity
QVQLGESGGGLVQAGGSLRLSCAASGSTFVDNTMGWYRQAPGKERELVAAITRSGGSTYYADSVKGRFTISRDNAKNTVYLQMNSLNPEDTAVYYCATYPYSPYFYVYVEPYVYWGQGTQVTVSS	low polyreactivity
QVQLVESGGGLVQAGGSLRLSCAASGSIFRHYAMGWYRQAPGKERELVAAISAIGGSTYADSVKGRFTISRDNAKNTVYLQMNSLKPEDTAVYYCNARSYTSYVYHEAGEFDYWGQGTQVTVSS	low polyreactivity
QVQLVESGGGLVQAGGSHRLSCAASGRIFDKNAMGWYRQAPGKERELVAAINRSGGRTYYADSVKGRFTISRDNAKNTVYLQMNSLKPEDTAVYYCAADTQGSRYDYWGQGTQVTVSS	high polyreactivity
QVQLVESGGGLVQAGGSLRLSCAASGRIFYYNTMGWYRQSPGKERELVAAISSTASTTYADSVKGRFTISRENAKNTVYLKMNILKPEDTAVYYCAAAYSVRGRTYDSWGQGTQVTVSS	high polyreactivity
QVQLEESGGGLVQPGGSLRLSCAASGTTIGHNAMGLYREAPGKERELVAAISNSGTRTYYADSVKGRFTISRDNAKNTVYLQMNILKPEDTAVYDCAARYYHIYTKYLQGSDYWGQGTQVTVSS	high polyreactivity
QVQLVESGGGLVQAGGSLRLSCAASGYTSRTNAMGWYIQAPGKERELVAAITWRGTRTYYADSVKGRFTISRDNAKNTVYLQMNSLKPEDTAVYYCATQWIRKYDYWGQGTQVTVSS	high polyreactivity
QVQLVESGVGLVQAVGSLRLSSPTSGIIFRYYSMVWYRHAPGKESEYVAVITRRGGGTYYAYSVKGRFTISRDNAKNTVYFEMNSLKPEDTAVYYCAKDFTGHYPKGFDYWGQGTQVTVSS	low polyreactivity
QVQLVESGGGLVQAGGSLRLICAASGRIFTSNAMGWYRQAPGKERELVAAISKSGGSTYYADSVKGRFTISRDNAKNTVYLQMNSLKPEDTAVYYCAAVPWRGFDYWGQGTQVTVSS	high polyreactivity
QVQLVESGGGLVQAGGSLRLSCAASGRIFDRYAMGWYRQAPGKERELVATIDSGGSTNYADSVKGRFTISRDNAKNTVYLQMNSLKPEDTAVYYCAVVTHSGYWSYYYWGQGTQVTVSS	low polyreactivity
